Assay target: Cytochrome P450 3A5 (Homo sapiens)
Sequence (P20815 whole entry): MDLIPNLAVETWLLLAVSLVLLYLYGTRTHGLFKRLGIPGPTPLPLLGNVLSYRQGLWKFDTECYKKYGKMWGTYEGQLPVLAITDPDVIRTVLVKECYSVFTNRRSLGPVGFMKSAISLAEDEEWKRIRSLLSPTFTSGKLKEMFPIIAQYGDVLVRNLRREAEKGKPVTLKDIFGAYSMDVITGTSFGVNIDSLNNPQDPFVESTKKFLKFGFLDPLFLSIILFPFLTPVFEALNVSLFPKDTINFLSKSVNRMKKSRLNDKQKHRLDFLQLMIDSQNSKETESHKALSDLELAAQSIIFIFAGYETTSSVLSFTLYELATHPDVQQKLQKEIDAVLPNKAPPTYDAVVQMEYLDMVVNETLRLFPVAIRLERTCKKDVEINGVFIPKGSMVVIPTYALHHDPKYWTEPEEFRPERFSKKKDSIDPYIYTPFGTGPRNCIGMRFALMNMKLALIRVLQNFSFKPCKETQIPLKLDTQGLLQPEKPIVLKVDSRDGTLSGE
Test: Inhibition of human recombinant CYP3A5 assessed as metabolism of 7-benzyloxy-4-trifluoromethylcoumarin to HFC after 30 mins by fluorescence assay
Assay type: ADME
Measure name: pIC50
Please keep in mind that pIC50 is minus log10 of the molar concentration; only the number is needed.

- Compound: "CC/C(=C(/c1ccc(O)cc1)c1ccc(OCCN)cc1)c1ccc(O)cc1 (mixture of isomers)"
  Measured: 6.25

Next compound, please.
input: Lab note: need pIC50 for CC/C(=C(/c1ccc(O)cc1)c1ccc(OCCN)cc1)c1ccccc1 (mixture of isomers) on Cytochrome P450 3A5 (Homo sapiens), anyone have it?
output: 6.14

Data origin, for the record: ChEMBL document CHEMBL3421623
